property label: melting point

Some compounds with known melting point results, for comparison:
{"columns": ["compound", "melting point"],
 "data": [
  ["CCc1nc(C)c2c(Cl)nc3ccc(F)cc3n12 [Intermediate B5]", "157 to 160 °C"],
  ["CCCc1nc(C)c2c(N)nc3ccc(OC)cc3n12", "201 to 203 °C"],
  ["CCCc1nc(C)c2c(C)nc3ccc(OC)cc3n12", "99 to 101 °C"],
  ["CCc1nc(C)c2c(N)nc3ccc(F)cc3n12", "238 to 239 °C"]
]}

Query: Looking for the measured melting point of "CCCc1nc(C)c2c(C)nc3cc(OCc4ccc5ccccc5n4)ccc3n12" , can you help?
Response: 134 to 136 °C

Query: Same again, this time with "CCCc1nc(C)c2c(N)nc3ccc(OCC4CC4)cc3n12"
Response: 163 to 167 °C

Query: Same again, this time with CCCc1nc(C)c2c(Cl)nc3cc(OC)ccc3n12 [Intermediate B15]
Response: 154 to 159 °C
